Reported MIC values for a set of compounds
system: Escherichia coli; experiment: Antimicrobial activity against wild-type Escherichia coli Eco523 by broth microdilution/CLSI method; assay type: functional; details: Escherichia coli, Eco523; read-out: MIC

Some compounds with recorded MIC:
| COMPOUND | TESTED TARGET | MIC |
| --- | --- | --- |
| CNC(=O)c1sc(N2CC[C@@H](NC(=O)c3[nH]c(C)c(Cl)c3Cl)[C@@H](OC)C2)nc1C(=O)O | Escherichia coli | > 64 µg/mL |
| Cc1[nH]c(C(=O)NC2CCN(c3ncc(C(=O)O)s3)CC2)c(Cl)c1Cl | Escherichia coli | > 64 µg/mL |
| CO[C@H]1CN(c2nc(C(=O)NN3CCOCC3)c(C(=O)O)s2)CC[C@H]1NC(=O)c1[nH]c(C)c(Cl)c1Cl | Escherichia coli | > 64 µg/mL |
| CO[C@H]1CN(c2nc(-c3csc(N)n3)c(C(=O)O)s2)CC[C@H]1NC(=O)c1[nH]c(C)c(Cl)c1Cl | Escherichia coli | 4 µg/mL |
| CO[C@H]1CN(c2nc(CO)c(C(=O)O)s2)CC[C@H]1NC(=O)c1[nH]c(C)c(Cl)c1Cl (racemic) | Escherichia coli | > 8 µg/mL |

Challenge: Please give measured MIC of the following entry: CO[C@H]1CN(c2nc(C(=O)N(C)C)c(C(=O)O)s2)CC[C@H]1NC(=O)c1[nH]c(C)c(Cl)c1Cl (racemic)
Response given: > 8 µg/mL

Challenge: Check the records and state MIC for CO[C@H]1CN(c2nc(C(=O)NCC3OCCO3)c(C(=O)O)s2)CC[C@H]1NC(=O)c1[nH]c(C)c(Cl)c1Cl
Response given: > 8 µg/mL

* * *

assay: Solubility of the compound; type: physicochemical
REPORTED METRIC: solubility (µM)
Report the value in µM with no unit label.

Worked cases, answers included:
| CPD SMILES | U | solubility |
| --- | --- | --- |
| CO[C@H]1CN(c2nc(-c3cncc(OCCN(C)C)n3)c(C(=O)O)s2)CC[C@H]1NC(=O)c1[nH]c(C)c(Cl)c1Cl | µM | 770 |
| COCC(COC)(COC)NC(=O)c1nc(N2CC[C@@H](NC(=O)c3[nH]c(C)c(Cl)c3Cl)[C@@H](OC)C2)sc1C(=O)O | µM | 720 |
| CO[C@H]1CN(c2nc(-c3nc(C)no3)c(C(=O)O)s2)CC[C@H]1NC(=O)c1[nH]c(C)c(Cl)c1Cl | µM | 630 |
| COCC(COC)NC(=O)c1nc(N2CC[C@@H](NC(=O)c3[nH]c(C)c(Cl)c3Cl)[C@@H](OC)C2)sc1C(=O)O | µM | 860 |

Challenge: Supply solubility value. Item: CO[C@H]1CN(c2nc(-c3ccncn3)c(C(=O)O)s2)CC[C@H]1NC(=O)c1[nH]c(C)c(Cl)c1Cl
Response given: 350

* * *

Property: MIC; scope: individual compounds
tested on: Moraxella catarrhalis; assay: Antimicrobial activity against Moraxella catarrhalis by broth microdilution/CLSI method; type: functional; conditions: Moraxella catarrhalis; read-out: MIC
Note: unit µg/mL is implicit; provide only the numeric part.

Some solved cases for reference:
| COMPOUND | MIC / µg/mL |
| --- | --- |
| COc1cc(OC)nc(-c2nc(N3CC[C@@H](NC(=O)c4[nH]c(C)c(Cl)c4Cl)[C@@H](OC)C3)sc2C(=O)O)n1 | 0.016 |
| COC1(OC)CN(c2ncc(C(=O)O)s2)CC[C@H]1NC(=O)c1[nH]c(C)c(Cl)c1Cl | 0.5 |
| CO[C@H]1CN(c2nc(CO)c(C(=O)O)s2)CC[C@H]1NC(=O)c1[nH]c(C)c(Cl)c1Cl (racemic) | 1 |
| COCc1nc(N2CC[C@@H](NC(=O)c3[nH]c(C)c(Cl)c3Cl)[C@@H](OC)C2)sc1C(=O)O | 0.063 |
| Cc1[nH]c(C(=O)NC2CCN(c3ncc(C(=O)O)s3)CC2)c(Cl)c1Cl | 2.2 |

Now for a further compound.
Challenge: Give the reported value of MIC for this record: CO[C@H]1CN(c2nc(-c3cnccn3)c(C(=O)O)s2)CC[C@H]1NC(=O)c1[nH]c(C)c(Cl)c1Cl
Response given: 0.008

* * *

test: Solubility of the compound; type: physicochemical
Parameter: solubility. Scope: all listed entries.
Kindly provide the numeric value in µM only, without the unit symbol.

Consider the worked cases shown below.
| CPD SMILES | solubility [µM] |
| --- | --- |
| CO[C@H]1CN(c2nc(-c3ccn[nH]3)c(C(=O)O)s2)CC[C@H]1NC(=O)c1[nH]c(C)c(Cl)c1Cl | 740 |
| CO[C@H]1CN(c2nc(-c3nccs3)c(C(=O)O)s2)CC[C@H]1NC(=O)c1[nH]c(C)c(Cl)c1Cl | 16 |
| CO[C@H]1CN(c2nc(-c3ncccn3)c(C(=O)O)s2)CC[C@H]1NC(=O)c1[nH]c(C)c(Cl)c1Cl | 350 |

Here is another compound to look at.
Challenge: # return recorded solubility for entry CO[C@H]1CN(c2nc(-c3cn(C)cn3)c(C(=O)O)s2)CC[C@H]1NC(=O)c1[nH]c(C)c(Cl)c1Cl
Response given: 3

* * *

tested on: Staphylococcus aureus; assay: Antimicrobial activity against methicillin-sensitive Staphylococcus aureus by broth microdilution/CLSI method; format: functional; settings: Staphylococcus aureus; read-out: MIC
# log10 of MIC listing for each entry below
Quick note: numbers are log10 of MIC, with µg/mL as the unit.

Challenge: Please supply the value of reported log10 of MIC for the item COCc1nc(N2CC[C@@H](NC(=O)c3[nH]c(C)c(Cl)c3Cl)[C@@H](OC)C2)sc1C(=O)O
Response given: -0.30

Challenge: Please report log10 of MIC for the following molecule: Cc1[nH]c(C(=O)N[C@@H]2CCN(c3ncc(C(=O)O)s3)C[C@@H]2Cl)c(Cl)c1Cl (racemic)
Response given: -0.46

Challenge: Answer with the recorded log10 of MIC for the molecule listed here: CO[C@H]1CO[C@@]2(CN(c3ncc(C(=O)O)s3)CC[C@H]2NC(=O)c2[nH]c(C)c(Cl)c2Cl)OC1 (relative stereo)
Response given: 0.60

Challenge: Report log10 of MIC for CO[C@H]1CN(c2nc(C(=O)NCCN3CCCC3=O)c(C(=O)O)s2)CC[C@H]1NC(=O)c1[nH]c(C)c(Cl)c1Cl
Response given: -0.46

* * *

Item-by-item account of MIC
test system: Staphylococcus aureus; experiment: Antimicrobial activity against methicillin-sensitive Staphylococcus aureus by broth microdilution/CLSI method; assay type: functional; settings: Staphylococcus aureus; read-out: MIC
Form entry: value (µg/mL) — number only.

| CPD SMILES | MIC, µg/mL |
| --- | --- |
| Cc1[nH]c(C(=O)N[C@@H]2CCN(c3ncc(C(=O)O)s3)CC23OCC(C)(C)CO3)c(Cl)c1Cl | 0.5 |
| Cc1[nH]c(C(=O)N[C@@H]2CCN(c3ncc(C(=O)O)s3)CC23OCC2(CC2)CO3)c(Cl)c1Cl | 0.5 |

Challenge: Note MIC for the compound shown: CO[C@H]1CN(c2nc(-c3ccn[nH]3)c(C(=O)O)s2)CC[C@H]1NC(=O)c1[nH]c(C)c(Cl)c1Cl
Response given: 0.5

* * *

assay: Octanol-phosphate buffer distribution coefficient, log D of the compound at pH 7.4 by shake flask method; assay type: physicochemical
REPORTED METRIC: logD
Give the figure only, with no unit attached.

| COMPOUND | RECORDED RESULT |
| --- | --- |
| C=C1COC2(CN(c3ncc(C(=O)O)s3)CC[C@H]2NC(=O)c2[nH]c(C)c(Cl)c2Cl)OC1 | 0.82 |
| CO[C@H]1CN(c2nc(C(=O)NCC3OCCO3)c(C(=O)O)s2)CC[C@H]1NC(=O)c1[nH]c(C)c(Cl)c1Cl | 0.76 |
| CO[C@H]1CN(c2nc(C(=O)O)c(C(N)=O)s2)CC[C@H]1NC(=O)c1[nH]c(C)c(Cl)c1Cl (racemic) | -0.63 |

From here, focus on the item given below.
Challenge: Supply measured logD of Cc1[nH]c(C(=O)N[C@@H]2CCN(c3ncc(C(=O)O)s3)C[C@@H]2S(C)(=O)=O)c(Cl)c1Cl (racemic) in your reply.
Response given: -1.1

* * *

tested on: Escherichia coli; assay: Antimicrobial activity against wild-type Escherichia coli Eco523 by broth microdilution/CLSI method; format: functional; details: Escherichia coli, Eco523; read-out: MIC
REPORTED METRIC: MIC

The examples below pair each entry with its known result.
| COMPOUND | TESTED TARGET | REPORTED METRIC | RECORDED RESULT |
| --- | --- | --- | --- |
| C#CCO[C@H]1CN(c2ncc(C(=O)O)s2)CC[C@H]1NC(=O)c1[nH]c(C)c(Cl)c1Cl | Escherichia coli | MIC | > 8 µg/mL |
| CO[C@H]1CN(c2nc(-c3cnccn3)c(C(=O)O)s2)CC[C@H]1NC(=O)c1[nH]c(C)c(Cl)c1Cl | Escherichia coli | MIC | > 8 µg/mL |
| CO[C@H]1CN(c2nc(C(=O)O)c(C(N)=O)s2)CC[C@H]1NC(=O)c1[nH]c(C)c(Cl)c1Cl (racemic) | Escherichia coli | MIC | > 8 µg/mL |
| CO[C@H]1CN(c2nc(C(=O)NC[C@H](C)OC)c(C(=O)O)s2)CC[C@H]1NC(=O)c1[nH]c(C)c(Cl)c1Cl | Escherichia coli | MIC | > 8 µg/mL |
| CO[C@H]1CN(c2nc(-c3ncc[nH]3)c(C(=O)O)s2)CC[C@H]1NC(=O)c1[nH]c(C)c(Cl)c1Cl | Escherichia coli | MIC | > 64 µg/mL |

Challenge: Output measured MIC for this item: CO[C@@H]1CN(c2ncc(C(=O)O)s2)CC[C@H]1NC(=O)c1[nH]c(C)c(Cl)c1Cl
Response given: > 64 µg/mL

Challenge: Quote MIC reported for Cc1[nH]c(C(=O)N[C@@H]2CCN(c3ncc(C(=O)O)s3)C[C@@H]2F)c(Cl)c1Cl please.
Response given: > 64 µg/mL

Values from ChEMBL document CHEMBL3352173
